Biological target: OsSMF1 (Oryza sativa, UniProt Q6ZLB0 1-436)
Sequence: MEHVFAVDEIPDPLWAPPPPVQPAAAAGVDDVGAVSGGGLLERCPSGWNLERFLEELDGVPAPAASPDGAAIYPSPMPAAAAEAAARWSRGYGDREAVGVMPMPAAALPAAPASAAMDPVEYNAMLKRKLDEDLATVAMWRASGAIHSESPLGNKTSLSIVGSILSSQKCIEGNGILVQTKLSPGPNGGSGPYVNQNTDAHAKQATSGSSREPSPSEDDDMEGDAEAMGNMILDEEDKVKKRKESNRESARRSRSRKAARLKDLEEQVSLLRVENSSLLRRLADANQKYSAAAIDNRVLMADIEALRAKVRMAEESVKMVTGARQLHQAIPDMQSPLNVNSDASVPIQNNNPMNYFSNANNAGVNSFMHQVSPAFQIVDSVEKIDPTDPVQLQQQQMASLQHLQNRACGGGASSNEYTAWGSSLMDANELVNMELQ
Assay: protein-binding microarray (RPBM); PBS, 2% BSA, 51.3 ng/ul salmon testes DNA, 50 uM zinc acetate, 200 nM TF, 25 C, 1 h; high values mean tight binding
Settings: protein: recombinant; tags: N-terminal polyhistidine and DsRed monomer fusion (pET32a); chain copies: 2; label: CyDye5-dUTP incorporated in the synthesized complementary strand; 3' TTTTT single-stranded linker to array surface; dsDNA, one strand shown
The full ranking holds about 39,000 sequences; the median of “fluorescence intensity (a.u.)” is about 4,300, and the highest 2% start at about 39,000. Only a selection was taken, and the highest values are over-represented in it overall.
READOUT KIND: binding signal

SEQUENCE CONTENT | binding signal
GTCCTCATCCTAGGTAAAATAACCACGTCATCTCACAGGTCGGAGTCACCTAGTGCAG | 20700 fluorescence intensity (a.u.)
TTAATGATTTTATTTGAATGGATCAGGGTCCAATTTGCTGCGGAGTCACCTAGTGCAG | 55800 fluorescence intensity (a.u.)
CCGGATGACATGATGACACCGCTACCCATTAAGTTTCGTCCGGAGTCACCTAGTGCAG | 4050 fluorescence intensity (a.u.)
ATCGAATGATCTAACGGCTCACACACTCCCACGCACTTTGCGGAGTCACCTAGTGCAG | 3290 fluorescence intensity (a.u.)
CCAAGTTCGGCTGGTCGCCACGCCACCCATCTCCATCTTCCGGAGTCACCTAGTGCAG | 4140 fluorescence intensity (a.u.)

Consider the sequence shown here: TAGGATTCAGCTCCTTCCTATTAGGGGTTCACCCGCGAGTCGGAGTCACCTAGTGCAG What is its recorded binding signal?
13800 fluorescence intensity (a.u.)

Need binding signal, item TCACATCCACGTATATTCCCTTCCCCTTCTCCAACCTTTCCGGAGTCACCTAGTGCAG
9390 fluorescence intensity (a.u.)

Which binding signal is reported for this sequence? TTCTTCCCTTCACATAGGAATTGGATGATGTGGAGACTTTCGGAGTCACCTAGTGCAG
7630 fluorescence intensity (a.u.)

Give the measured binding signal of AATCATTTTATTTGACTAATACACGTCAGGATTGAATGAGCGGAGTCACCTAGTGCAG .
4880 fluorescence intensity (a.u.)

====

Biological target: OsSMF1 (Oryza sativa, UniProt Q6ZLB0 1-436)
Sequence: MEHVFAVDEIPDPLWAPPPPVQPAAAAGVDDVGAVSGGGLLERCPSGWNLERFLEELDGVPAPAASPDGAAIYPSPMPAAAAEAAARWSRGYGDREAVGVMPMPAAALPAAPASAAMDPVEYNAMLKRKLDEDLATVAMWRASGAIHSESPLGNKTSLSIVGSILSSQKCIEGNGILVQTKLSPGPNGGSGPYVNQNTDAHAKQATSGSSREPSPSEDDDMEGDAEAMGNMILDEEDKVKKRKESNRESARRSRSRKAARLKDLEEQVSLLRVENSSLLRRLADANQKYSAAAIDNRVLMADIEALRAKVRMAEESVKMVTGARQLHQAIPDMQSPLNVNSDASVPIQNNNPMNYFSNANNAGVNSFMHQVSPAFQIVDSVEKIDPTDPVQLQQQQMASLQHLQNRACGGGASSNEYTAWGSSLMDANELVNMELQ
Experiment: protein-binding microarray (RPBM); PBS, 2% BSA, 51.3 ng/ul salmon testes DNA, 50 uM zinc acetate, 200 nM TF, 25 C, 1 h; high values mean tight binding
Conditions: protein: recombinant; tags: N-terminal polyhistidine and DsRed monomer fusion (pET32a); chain copies: 2; label: CyDye5-dUTP incorporated in the synthesized complementary strand; 3' TTTTT single-stranded linker to array surface; dsDNA, one strand shown
Whole data set: some 39,000 sequences, median “fluorescence intensity (a.u.)” near 4,300, cut for the highest 2% near 39,000. The full list was thinned out, with the highest values kept by preference.
READOUT KIND: binding signal

SEQUENCE CONTENT | TGT | VALUE MEASURED
CGGTTGAATTGTTCTTGGCATCATCGGGTGTAACCGTGTACGGAGTCACCTAGTGCAG | OsSMF1 (Oryza sativa, UniProt Q6ZLB0 1-436) | 3350 fluorescence intensity (a.u.)

Suppose we examine the sequence AATGAAATTAAACACACCCAACAAAATAAAAGACCAAACCCGGAGTCACCTAGTGCAG ; what binding signal value has been reported?
3140 fluorescence intensity (a.u.)

Data request, read-out binding signal, for AGCTTCGGTTTTCTTACTCAGCACAACGGGGTGGTGGCGCCGGAGTCACCTAGTGCAG
5360 fluorescence intensity (a.u.)

Consider the sequence shown here: TCCAGTTGTGCGTGGAGATGTTGGTGAAGAGCTTCCGCTGCGGAGTCACCTAGTGCAG What is its recorded binding signal?
4270 fluorescence intensity (a.u.)

Consider the sequence TTTCTTAACTCGACACGCAATGTATTGTTATTTACGATTCCGGAGTCACCTAGTGCAG and give its measured binding signal.
3740 fluorescence intensity (a.u.)
